# Tested on: NCI-H522 lung
# assayOverview: NCI-60 one-dose screen, 48 h
# conditionInfo: 10 µM unless noted
Compounds without any hit were thinned out: in the full panel of roughly 83,000, 20% have a hit. Calls of active or inactive are those of the source. How the source made its calls: active means growth percent below 10; inactive means the rest.
Classes used: t for active, f for inactive

{"compound": "O=C1OCCC1Br (stereo not given)", "targetSystem": "NCI-H522 lung", "group": "f"}
{"compound": "CC[C@H](C)[C@@H]([C@@H](CC(=O)N1CCC[C@H]1[C@H](OC)[C@@H](C)C(=O)N[C@H](C)[C@@H](O)c1ccccc1)OC)N(C)C(=O)[C@@H](NC(=O)[C@@H](NC)C(C)C)C(C)C", "targetSystem": "NCI-H522 lung", "group": "t"}
{"compound": "COP(=S)(N1CC1)N1CC1", "targetSystem": "NCI-H522 lung", "group": "f"}
{"compound": "CCOC(=O)[C@@H](C)C[C@H](Cc1ccccc1)NC(=O)c1csc([C@@H](C[C@H](C(C)C)N(C)C(=O)[C@@H](NC(=O)[C@H]2CCCCN2C)C(C)(C)C)OC(C)=O)n1", "targetSystem": "NCI-H522 lung", "group": "t"}
{"compound": "CC(C)[C@@H]1NC(=O)[C@]2(C)CSC(=N2)c2csc(n2)CNC(=O)C[C@@H](/C=C/CCS)OC1=O", "targetSystem": "NCI-H522 lung", "group": "t"}

====

# Tested on: NCI-H460 lung
# assayOverview: NCI-60 one-dose screen, 48 h
# conditionInfo: 10 µM unless noted
Compounds without any hit were thinned out: in the full panel of roughly 83,000, 20% have a hit. Calls of active or inactive are those of the source. Rule for the calls: active = growth percent below 10; inactive = the rest.
Outcome codes: 1 (active), 0 (inactive)

{"molecule": "CC(=O)/C=C/c1ccc2c(c1)OCO2", "group": 0}
{"molecule": "O=C(O)C(Cl)(Cl)C(F)(F)F", "group": 0}
{"molecule": "COc1ccc(/C=C\\c2cc(OC)c(OC)c(OC)c2)cc1OCC(=O)Nc1nc2ccc(OC(F)(F)F)cc2s1", "group": 0}
{"molecule": "CCCCCSC1C2C(=O)C(Br)=CC13CCNc1c(O)c4c5c(c13)=[N+]2CCC=5C=N4 (centres undefined)", "group": 1}
{"molecule": "O=C([O][Hg][CH2]C1COCC([CH2][Hg][O]C(=O)c2ccccc2)O1)c1ccccc1 (centres undefined)", "group": 0}
{"molecule": "CC(C)CCC1(CCCl)C(=O)NC(=O)NC1=O", "group": 0}
{"molecule": "Clc1cccc(NCOOC2(OOCNc3cccc(Cl)c3)CCCCC2)c1", "group": 0}
{"molecule": "COC(=O)[C@H](C[C@H](Cc1ccccc1)NC(=O)c1csc([C@@H](C[C@H](C(C)C)N(C)C(=O)[C@@H](NC(=O)[C@H]2CCCCN2C)C(C)C)OC(C)=O)n1)NC(=O)OCc1ccccc1", "group": 1}
{"molecule": "COC1=CC(=O)O[C@@H](/C=C/c2ccc3c(c2)OCO3)C1", "group": 0}
{"molecule": "C[Se]C(=O)c1ccccc1OC(C)=O", "group": 0}
{"molecule": "COc1cc(/C=C/[N+](=O)[O-])c([N+](=O)[O-])cc1OC", "group": 0}
{"molecule": "CCCC[C@H](NC(=O)[C@H]1CCCN1C)C(=O)N(C)[C@H](C[C@@H](OC(C)=O)c1nc(C(=O)N[C@@H](Cc2ccccc2)C[C@H](C)C(=O)OCC)cs1)C(C)C", "group": 1}
{"molecule": "CC(=O)OCC1O[C@@H]([S-])C(OC(C)=O)[C@H](OC(C)=O)[C@@H]1OC(C)=O.[Au+].c1ccc(CN2[CH-]N(Cc3ccccc3)C(c3ccccc3)=C2c2ccccc2)cc1", "group": 0}
{"molecule": "O=Cc1cn(Cc2ccc(Cl)cc2)c2ccccc12", "group": 1}
{"molecule": "Nc1ccc2c(c1)oc1ccccc12", "group": 0}
{"molecule": "C=CCc1cc2c(cc1OCC)OCO2", "group": 0}
{"molecule": "COC(=O)CCc1c[nH]c2ccc(N(CCCl)CCCl)cc12", "group": 0}
{"molecule": "CC(=O)O[C@@H]1CC[C@]2(C)[C@H]3CC[C@]4(C)C(=O)CC[C@H]4[C@@H]3C[C@@H]3SC(N)=N[C@@]32C1", "group": 0}
{"molecule": "COc1ccc(S(=O)(=O)Nc2c(/C=C\\c3cc(OC)c(OC)c(OC)c3)ccc(OC)c2O)cc1OC", "group": 1}

Data provenance: PubChem BioAssay (NCI)
